Reference for the values: PubChem BioAssay

PROTOCOL_SUMMARY: CREB reporter modulators under forskolin, primary screen, cell-based, PC12, CRE-LacZ reporter, forskolin-stimulated (AID 1146);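 also: PC12 cells with 6xCRE LacZ reporter stimulated by forskolin 10 µM; beta-galactosidase reporter signal reflecting CREB driven transcription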
TEST_PARAMETERS: luminescence, 4.5 h, higher = more signal, called active from +8 up or from −8 down
Classification field: enter condition met for z-score values not below -0.05, condition not met for values below it.

COMPOUND: CC1(C)C(=O)C(c2ccccc2)=C2CN3C(=O)N(CCc4ccccc4)C(=O)C3(Cc3ccc(F)cc3)C=C21 (configuration not stated)
CLASS_NAME: condition not met
--
COMPOUND: COc1cc(NN2C(C(O)c3ccccc3)C=CC3C(=O)N(C)C(=O)C32)cc(OC)c1OC (configuration not stated)
CLASS_NAME: condition not met
--
COMPOUND: [N-]=[N+]=NC[C@H](Cc1ccccc1)NC(=O)c1ccccc1
CLASS_NAME: condition not met
--
COMPOUND: COC(=O)C(CC#Cc1ccc2c(c1)[C@]1(C(=O)N2)[C@H](c2ccc(OCCO)cc2)N2[C@H](c3ccccc3)[C@H](c3ccccc3)OC(=O)[C@H]2[C@@H]1C(=O)N1CCN(c2ncccn2)CC1)C(=O)OC
CLASS_NAME: condition met
--
COMPOUND: COCCCNC(=O)[C@@H]1c2ccccc2C(=O)N(C2Cc3ccccc3C2)[C@H]1c1ccc(CO)cc1
CLASS_NAME: condition not met
--
COMPOUND: Cc1ccc([C@H]2C(C(=O)O)=C[C@@H](C(C)(C)C)N2S(=O)(=O)c2ccc(C)cc2)cc1
CLASS_NAME: condition met
--
COMPOUND: COCCOC(=O)N1C(=O)[C@@]2(c3cc(C#CC4(O)CCCCCC4)ccc31)[C@H](c1ccc(OCCO)cc1)N1[C@H](c3ccccc3)[C@H](c3ccccc3)OC(=O)[C@H]1[C@@H]2C(=O)Nc1nc2ccccc2s1
CLASS_NAME: condition met

----------
Recorded composite z-score values for a group of compounds are listed next.
PROTOCOL_SUMMARY: small-molecule microarray binders of probe aShh, primary screen, biochemical, biotinylated probe, 635/667 nm fluorescence (AID 1114);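 also: probe is biotin-labelled aShh protein from a stem cell growth factor screen; measures binding of labelled protein to compounds printed on the slide; score merges feature fluorescence at 667 nm with signal-to-noise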
TEST_PARAMETERS: higher = more signal

COMPOUND: CC(=O)N1CC(C(O)C2C=CC3C(=O)NC(=O)C3N2Nc2ccc(Cl)cc2Cl)c2ccccc21 (centres undefined)
composite z-score: 0.806

COMPOUND: CCCC=C(CCC)[C@@H](NC(=O)CCc1ccccc1)c1ccc(C(F)(F)F)cc1
composite z-score: 0.93

COMPOUND: O=C(O)[C@@H]1C[C@@H]2C(=O)N3CCC[C@H]3C(=O)N2[C@@H]1c1cccc(OCCO)c1
composite z-score: 2.65

COMPOUND: O=C1C2C=CC(C(O)c3cc(C(F)(F)F)cc(C(F)(F)F)c3)N(Nc3ccccc3F)C2C(=O)N1c1ccccc1 (centres undefined)
composite z-score: 0.957

----------
PROTOCOL_SUMMARY: basal HepG2 mitochondrial membrane potential changes, profiling panel, cell-based, JC-1 fluorescence, 24 h, 100 nL compound (AID 1167); also: test concentration not given here
TEST_PARAMETERS: higher = more signal
QUANTITY_MEASURED: z-score

MOLECULE: CN1C(=O)C2C=CC(C(O)c3ccc(F)cc3)N(NC(=O)OC(C)(C)C)C2C1=O (stereo not drawn)
RECORDED_NUMBER: -0.8
//
MOLECULE: COCCOC(=O)N1C(=O)[C@@]2(c3cc(C#CCC(C(=O)OC)C(=O)OC)ccc31)[C@H](C(=O)NC[C@H](O)c1ccccc1)[C@H]1C(=O)O[C@H](c3ccccc3)[C@H](c3ccccc3)N1[C@@H]2c1ccc(O)cc1
RECORDED_NUMBER: 0.126
//
MOLECULE: CCCNC(=O)[C@@]1(Sc2ccc(C)cc2)CC(=O)N(C(C)C)[C@@H]1c1ccc(CO)cc1I
RECORDED_NUMBER: 0.632
//
MOLECULE: C[C@]1(C(=O)NCC(F)(F)F)c2ccccc2C(=O)N(Cc2ccccc2)[C@H]1c1ccc(CO)cc1
RECORDED_NUMBER: 1.97
//
MOLECULE: COc1ccc(C#Cc2ccc3c(c2)[C@]2(C(=O)N3)[C@H](C(=O)N3CCCCCCC3)[C@H]3C(=O)O[C@H](c4ccccc4)[C@H](c4ccccc4)N3[C@@H]2c2ccc(O)cc2)cc1
RECORDED_NUMBER: -1.2
//
MOLECULE: CO[C@H]1O[C@H](CO)[C@@H](OC(=O)CCc2ccccc2)[C@H](OC(=O)c2cc3ccccc3[nH]2)[C@H]1OC(=O)c1cc2ccccc2[nH]1
RECORDED_NUMBER: -2.04
//
MOLECULE: O=C1C2C=CC(C(O)c3ccc(I)cc3)N(Nc3ccccc3)C2C(=O)N1c1ccccc1 (stereo not drawn)
RECORDED_NUMBER: -2.3
//
MOLECULE: C=C(COC)C(=O)CC[C@H](OC(C)=O)c1ccc(OCCO)cc1
RECORDED_NUMBER: 0.692
